# SYSTEM_NAME: T1, human prostate specific membrane antigen (PSMA), full-length, on cells (human, UniProt Q04609 1-750)
# T1 construct: also called huPSMA; human PSMA
# METHOD_DESCRIPTION: FMAT direct cell binding, CHO human PSMA cells
READOUT_LABEL: pEC50
Give bare numbers, as −log10 of the molar value.

single VH domain antibody 1.18 (VHH, Human single VH domain antibody (Humabody)) VHH: EVQLLESGGGLVQPGGSLRLSCAASGFSFSSYALSWVRQAPGKGLEWVSSIGENNATTDYAASVKGRFTISRDNSKNTLYLQMNSLRVEDTAVYYCVKDGVHWGQGTLVTVSS	10.23
single VH domain antibody 2.14 (VHH, Human single VH domain antibody (Humabody); C-terminal His tag, residues not tied) VHH: EVQLVESGGGVVQPGRSLRLSCAASGFSFSGYGVHWVRQAPGKGLEWVAYISYDASNKYYADNVKGRFTISRDNSKNTLYLQMNSLRAEDTAVYYCAKDPAWGLRLGESSSYDFDIWGQGTMVTVSS	9.96
single VH domain antibody 2.22 (VHH, Human single VH domain antibody (Humabody); C-terminal His tag, residues not tied) VHH: EVQLVESGGGVVQPGRSLRLSCAASGFSFSGYGTHWVRQAPGKGLEWVAYISYDGSNKYYAAPVKGRFTISRDNSKNTLYLQMNSLRAEDTAVYYCAKDAAWGLRLGESSSYDFDIWGQGTMVTVSS	9.91

// query Can you look up the measured pEC50 of single VH domain antibody 2.1 (VHH, Human single VH domain antibody (Humabody); tested with a C-terminal His tag; 71-95; also called VH 2.1; VH2.1) VHH: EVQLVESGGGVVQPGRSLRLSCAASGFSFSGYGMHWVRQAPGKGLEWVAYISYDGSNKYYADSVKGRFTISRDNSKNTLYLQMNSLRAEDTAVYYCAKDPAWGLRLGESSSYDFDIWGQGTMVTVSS for me?
// result 9.96
